# Tested on: Escherichia coli
# METHOD NOTES: Antibacterial activity against Escherichia coli NCDC 134 after overnight incubation by single disc method
# Format: functional
QUANTITY: MIC

So what does the record say about MIC for O=C(CN1CCN(c2cc3c(cc2F)c(=O)c(C(=O)O)cn3C2CC2)CC1)Nc1nc2c(Cl)ccc(Cl)c2s1 ?
3 to 125 µg/mL

Request: O=C(CN1CCN(c2cc3c(cc2F)c(=O)c(C(=O)O)cn3C2CC2)CC1)Nc1nc2ccc([N+](=O)[O-])cc2s1
3 to 125 µg/mL

Would you mind doing COc1c(N2CCNC(C)C2)c(F)cc2c(=O)c(C(=O)O)cn(C3CC3)c12 (centres undefined) [GATIFLOXACIN] as well?
5 to 100 µg/mL

Next molecule up: O=C(CN1CCN(c2cc3c(cc2F)c(=O)c(C(=O)O)cn3C2CC2)CC1)Nc1nc2ccc(Cl)cc2s1
3 to 15 µg/mL

* * *

# Test system: Pseudomonas aeruginosa
# METHOD NOTES: Antibacterial activity against Pseudomonas aeruginosa NCDC105 after overnight incubation by single disc method
# Format: functional
QUANTITY: MIC

- O=C(CN1CCN(c2cc3c(cc2F)c(=O)c(C(=O)O)cn3C2CC2)CC1)Nc1nc2ccc(Cl)cc2s1: 3 to 15 µg/mL
- O=C(CN1CCN(c2cc3c(cc2F)c(=O)c(C(=O)O)cn3C2CC2)CC1)Nc1nc2ccc([N+](=O)[O-])cc2s1: 3 to 125 µg/mL

Which measured MIC value corresponds to O=C(CN1CCN(c2cc3c(cc2F)c(=O)c(C(=O)O)cn3C2CC2)CC1)Nc1nc2c(Cl)ccc(Cl)c2s1 ?
3 to 125 µg/mL

Would you mind doing COc1c(N2CCNC(C)C2)c(F)cc2c(=O)c(C(=O)O)cn(C3CC3)c12 (centres undefined) [GATIFLOXACIN] as well?
5 to 100 µg/mL

* * *

# reported MIC; entries follow
# Test system: Yersinia pseudotuberculosis
# METHOD NOTES: Antibacterial activity against Yersinia pseudotuberculosis ATCC 911 after 18 to 24 hrs by double microdilution method
# Type: functional

Example results:
- O=C(O)c1cn(C2CC2)c2cc(N3CCN(Cn4nc(CNc5ccc(N6CCN(c7ccc(F)cc7)CC6)c(F)c5)n(Cc5ccccc5)c4=S)CC3)c(F)cc2c1=O: < 0.24 µg/mL
- CCn1c(CNc2ccc(N3CCN(c4ccc(F)cc4)CC3)c(F)c2)nn(CN2CCN(c3cc4c(cc3F)c(=O)c(C(=O)O)cn4C3CC3)CC2)c1=S: < 0.24 µg/mL
- CC1(C)S[C@@H]2[C@H](NC(=O)[C@H](N)c3ccccc3)C(=O)N2[C@H]1C(=O)O [AMPICILLIN]: 10 to 128 µg/mL

Proceeding to the next molecule to report its MIC.
Look at this molecule and give its reported MIC. COc1ccccc1N1CCN(Cc2nn(CN3CCN(c4cc5c(cc4F)c(=O)c(C(=O)O)cn5C4CC4)CC3)c(=S)n2Cc2ccccc2)CC1
< 0.24 µg/mL

* * *

Entries and their MIC values follow.
# Test system: Pseudomonas aeruginosa
# METHOD NOTES: Antibacterial activity against Pseudomonas aeruginosa ATCC 10145 after 18 to 24 hrs by double microdilution method
# Type: functional

Illustrative cases are given below, each with its answer.
* COc1ccccc1N1CCN(Cc2nn(CN3CCN(c4cc5c(cc4F)c(=O)c(C(=O)O)cn5C4CC4)CC3)c(=O)n2Cc2ccccc2)CC1 | < 0.24 µg/mL
* COc1ccccc1N1CCN(Cc2nn(CN3CCN(c4cc5c(cc4F)c(=O)c(C(=O)O)cn5C4CC4)CC3)c(=S)n2Cc2ccccc2)CC1 | < 0.24 µg/mL
* O=C(O)c1cn(C2CC2)c2cc(N3CCN(Cn4nc(CNc5ccc(N6CCN(c7ccc(F)cc7)CC6)c(F)c5)n(Cc5ccccc5)c4=S)CC3)c(F)cc2c1=O | < 0.24 µg/mL
* CCn1c(CN2CCN(c3ccccc3OC)CC2)nn(CN2CCN(c3cc4c(cc3F)c(=O)c(C(=O)O)cn4C3CC3)CC2)c1=S | < 0.24 µg/mL
* COc1ccccc1N1CCN(Cc2nn(CN3CCN(c4cc5c(cc4F)c(=O)c(C(=O)O)cn5C4CC4)CC3)c(=S)n2-c2ccccc2)CC1 | < 0.24 µg/mL

Record request: MIC value, item CCn1c(CNc2ccc(N3CCN(c4ccc(F)cc4)CC3)c(F)c2)nn(CN2CCN(c3cc4c(cc3F)c(=O)c(C(=O)O)cn4C3CC3)CC2)c1=S
< 0.24 µg/mL

Let us now turn to CC1(C)S[C@@H]2[C@H](NC(=O)[C@H](N)c3ccccc3)C(=O)N2[C@H]1C(=O)O
3.9 to 250 µg/mL

And for O=C(O)c1cn(C2CC2)c2cc(N3CCN(Cn4nc(CNc5ccc(N6CCN(c7ccc(F)cc7)CC6)c(F)c5)n(-c5ccccc5)c4=S)CC3)c(F)cc2c1=O ?
< 0.24 µg/mL
